All values here come from patent EP2272817A1.

# SYSTEM_TESTED: recombinant human PAI-1 (Homo sapiens, UniProt P05121);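 further: PAI-1 preincubated with compound, then two-chain tPA added, residual tPA activity read with fluorogenic Pyr-Gly-Arg-MCA substrate after 30 min at room temperature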
# Sequence (P05121 24-402): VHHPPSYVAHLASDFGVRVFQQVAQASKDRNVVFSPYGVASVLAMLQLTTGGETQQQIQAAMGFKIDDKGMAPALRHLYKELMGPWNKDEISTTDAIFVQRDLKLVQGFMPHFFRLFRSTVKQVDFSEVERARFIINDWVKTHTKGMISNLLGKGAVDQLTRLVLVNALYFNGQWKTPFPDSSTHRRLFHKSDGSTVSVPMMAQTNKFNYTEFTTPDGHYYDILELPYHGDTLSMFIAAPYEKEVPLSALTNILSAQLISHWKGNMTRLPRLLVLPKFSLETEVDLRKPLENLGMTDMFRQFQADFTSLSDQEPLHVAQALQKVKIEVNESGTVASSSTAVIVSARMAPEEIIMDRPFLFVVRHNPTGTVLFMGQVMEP
# TEST_SUMMARY: biochemical
# RUN_PARAMETERS: read-out: Inhibition Rate of PAI-1 Activity (%)
Decide by inhibition at 5 µM: equal to or exceeding 60% means True, less means False.

Example entries begin here.
CCC(CC)Oc1ccc(N(Cc2ccc(C(C)(C)C)cc2)C(=O)C(=O)O)c(-c2ccc(OC(F)(F)F)cc2)c1	True
CC(C)(C)c1ccc(Oc2ccc(Oc3ccc(OC(F)(F)F)cc3)cc2/C=C/C(=O)O)cc1	False

Is inhibition at 5 µM at least 60%? Consider CC(C)(C)c1ccc(COc2ccc(OCc3ccc(OC(F)(F)F)cc3)cc2CCC(=O)O)cc1
False

Can you handle CC(C)c1ccc(Oc2ccc(/C=C\C(=O)O)c(Oc3ccc(C(C)C)cc3)c2)cc1 next?
False

Another: CC(C)(C)c1ccc(Oc2cc(Oc3ccc(OC(F)(F)F)cc3)ccc2/C=C/C(=O)O)cc1
False

Again, but for CC(C)(C)c1ccc(N(C(=O)C(=O)O)c2ccc(-c3ccc(OC(F)(F)F)cc3)cc2)cc1
False

Same thing, different molecule: CC(C)(C)c1ccc(CN(C(=O)C(=O)O)c2ccc(Sc3ccc(OC(F)(F)F)cc3)cc2)cc1
True
